- Test system: E. coli mL308 225
- measurement.description: In Vitro Anti-Bacterial Activity Assay (MIC), gram negative
- Format: cell-based
- assay.context: Escherichia coli, ML308225, 18 h, gram negative bacteria; read-out: Antibiotic Activity Gram − (MIC)
Each record here notes measured MIC.

Worked set:
[
  {
    "compound": "CC(=O)OCC(=O)Nc1ccc(-c2ccc(O)c3c2C[C@H]2C[C@H]4[C@H](N(C)C)C(O)=C(C(N)=O)C(=O)[C@@]4(O)C(O)=C2C3=O)cc1",
    "readout.type": "MIC",
    "assay.value": "> 4 µg/mL"
  },
  {
    "compound": "COC(=O)C1CCN(Cc2ccc(-c3ccc(O)c4c3C[C@H]3C[C@H]5[C@H](N(C)C)C(O)=C(C(N)=O)C(=O)[C@@]5(O)C(O)=C3C4=O)cc2)CC1",
    "readout.type": "MIC",
    "assay.value": "< 4 µg/mL"
  },
  {
    "compound": "C[C@H]1c2ccc(CN3CCC(C(F)(F)F)CC3)c(O)c2C(=O)C2=C(O)[C@]3(O)C(=O)C(C(N)=O)=C(O)[C@@H](N(C)C)[C@@H]3[C@@H](O)[C@@H]21",
    "readout.type": "MIC",
    "assay.value": "< 4 µg/mL"
  },
  {
    "compound": "CN1CCC(Nc2ccc(O)c3c2C[C@H]2C[C@H]4[C@H](N(C)C)C(O)=C(C(N)=O)C(=O)[C@@]4(O)C(O)=C2C3=O)CC1",
    "readout.type": "MIC",
    "assay.value": "> 4 µg/mL"
  },
  {
    "compound": "C/C(=N\\OC(C)(C)C)c1ccc(O)c2c1C[C@H]1C[C@H]3[C@H](N(C)C)C(O)=C(C(N)=O)C(=O)[C@@]3(O)C(O)=C1C2=O",
    "readout.type": "MIC",
    "assay.value": "< 4 µg/mL"
  },
  {
    "compound": "CN(C)[C@@H]1C(O)=C(C(N)=O)C(=O)[C@@]2(O)C(O)=C3C(=O)c4c(O)ccc(-c5ccc(CNCc6cccc(Cl)c6)cc5)c4C[C@H]3C[C@@H]12",
    "readout.type": "MIC",
    "assay.value": "< 4 µg/mL"
  }
]

Using the record for CNCc1cc(N(C)C)c2c(c1O)C(=O)C1=C(O)[C@]3(O)C(=O)C(C(N)=O)=C(O)[C@@H](N(C)C)[C@@H]3C[C@@H]1C2 , state its measured MIC.
> 4 µg/mL

Using the record for CN(C)c1cc(CN2CCC3(CC2)OCCO3)c(O)c2c1C[C@H]1C[C@H]3[C@H](N(C)C)C(O)=C(C(N)=O)C(=O)[C@@]3(O)C(O)=C1C2=O , state its measured MIC.
< 4 µg/mL

Using the record for CCCc1ccc(O)c2c1C[C@H]1C[C@H]3[C@H](N(C)C)C(O)=C(C(N)=O)C(=O)[C@@]3(O)C(O)=C1C2=O , state its measured MIC.
< 4 µg/mL

====

- Test system: S. aureus RN450
- measurement.description: In Vitro Anti-Bacterial Activity Assay (MIC), gram positive
- Type: cell-based
- assay.context: Staphylococcus aureus, RN450, 18 h, gram positive bacteria; read-out: Antibiotic Activity Gram + (MIC)
readout.type: MIC

[
  {
    "molecule": "CN(C)c1cc(CN2CCCCC2)c(O)c2c1C[C@H]1C[C@H]3[C@H](N(C)C)C(O)=C(C(N)=O)C(=O)[C@@]3(O)C(O)=C1C2=O",
    "readout.type": "MIC",
    "assay.value": "< 4 µg/mL"
  },
  {
    "molecule": "COC(=O)O[C@@]12C(=O)C(C(N)=O)=C(O)[C@@H](N(C)C)[C@@H]1C[C@@H]1Cc3cccc(O)c3C(=O)C1=C2O",
    "readout.type": "MIC",
    "assay.value": "> 4 µg/mL"
  },
  {
    "molecule": "COC(=O)C1CCN(Cc2ccc(-c3ccc(O)c4c3C[C@H]3C[C@H]5[C@H](N(C)C)C(O)=C(C(N)=O)C(=O)[C@@]5(O)C(O)=C3C4=O)cc2)CC1",
    "readout.type": "MIC",
    "assay.value": "< 4 µg/mL"
  },
  {
    "molecule": "COc1ccc(-c2cc(CNC(C)CF)c(O)c3c2C[C@H]2C[C@H]4[C@H](N(C)C)C(O)=C(C(N)=O)C(=O)[C@@]4(O)C(O)=C2C3=O)cc1 (stereo partly drawn)",
    "readout.type": "MIC",
    "assay.value": "< 4 µg/mL"
  },
  {
    "molecule": "CC(CCO)NCc1cc(N(C)C)c2c(c1O)C(=O)C1=C(O)[C@]3(O)C(=O)C(C(N)=O)=C(O)[C@@H](N(C)C)[C@@H]3C[C@@H]1C2 (stereo partly drawn)",
    "readout.type": "MIC",
    "assay.value": "< 4 µg/mL"
  },
  {
    "molecule": "CC#Cc1cc(C#CC)c2c(c1O)C(=O)C1=C(O)[C@]3(O)C(=O)C(C(N)=O)=C(O)[C@@H](N(C)C)[C@@H]3C[C@@H]1C2",
    "readout.type": "MIC",
    "assay.value": "> 4 µg/mL"
  },
  {
    "molecule": "CN(C)[C@@H]1C(O)=C(C(N)=O)C(=O)[C@@]2(O)C(O)=C3C(=O)c4c(O)ccc(-c5ccc(CO)cc5)c4C[C@H]3C[C@@H]12",
    "readout.type": "MIC",
    "assay.value": "< 4 µg/mL"
  },
  {
    "molecule": "CCc1cc(C(C)(C)C)c(O)c2c1C[C@H]1C[C@H]3[C@H](N(C)C)C(O)=C(C(=O)NC(C)(C)C)C(=O)[C@@]3(O)C(O)=C1C2=O",
    "readout.type": "MIC",
    "assay.value": "< 4 µg/mL"
  }
]

Using the record for CN(C)[C@@H]1C(O)=C(C(N)=O)C(=O)[C@@]2(O)C(O)=C3C(=O)c4c(O)c(C(C)(C)C)cc(-c5ccc6c(c5)OCO6)c4C[C@H]3C[C@@H]12 , state its measured MIC.
> 4 µg/mL

Using the record for CN(C)c1cc(CN(Cc2ccccc2)CC(F)(F)F)c(O)c2c1C[C@H]1C[C@H]3[C@H](N(C)C)C(O)=C(C(N)=O)C(=O)[C@@]3(O)C(O)=C1C2=O , state its measured MIC.
< 4 µg/mL

Using the record for CC(CF)NCc1cc(N(C)C)c2c(c1O)C(=O)C1=C(O)[C@]3(O)C(=O)C(C(N)=O)=C(O)[C@@H](N(C)C)[C@@H]3C[C@@H]1C2 (stereo partly drawn) , state its measured MIC.
< 4 µg/mL
